# systemTested: human GPR120 (Homo sapiens)
# Construct: host or cells: HEK293 cells co-expressing Gqi5
# Sequence (Q5NUL3 whole entry): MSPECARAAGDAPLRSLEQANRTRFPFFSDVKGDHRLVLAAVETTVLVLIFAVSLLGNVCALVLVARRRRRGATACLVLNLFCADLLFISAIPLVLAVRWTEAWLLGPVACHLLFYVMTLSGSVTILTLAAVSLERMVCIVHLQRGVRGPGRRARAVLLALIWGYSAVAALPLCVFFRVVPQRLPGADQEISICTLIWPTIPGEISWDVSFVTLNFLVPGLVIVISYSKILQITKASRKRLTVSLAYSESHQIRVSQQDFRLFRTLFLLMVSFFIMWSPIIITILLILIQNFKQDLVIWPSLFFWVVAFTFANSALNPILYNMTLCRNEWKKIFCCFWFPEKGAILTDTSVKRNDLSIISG
# protocolNotes: Intracellular Ca2+ assay in human GPR120 stable cell line (HEK293 co-expressing Gqi5), Flexstation
# Type: cell-based
# measurementSetup: % activity at 5 μM compared to the maximal activity of GW9508 at 6.7 μM (=100%); human GPR120 cells, Ca2+ fluorescence
# Experimental: Human GPR120 stable cell line was purchased from Multispan Inc (26219 Eden Landing Road, Hayward, Calif. 94545). This GPR120 cell line was generated in HEK293 cells co-expressing Gqi5. […] The concentration of intracellular Ca^2+ was measured as described below. […] Compounds were dissolved in 100% DMSO and diluted to desired concentrations with assay buffer and placed in the Flexstation simultaneously with the cell plate for 20 minute incubation at 37° C. prior to reading. […]
resultType: % Activity (GW9508 Reference Compound) (%)
Answers are plain numbers, in %.

Example entries and their recorded answers appear below.
compound	scaleUnit	% Activity (GW9508 Reference Compound)
CC1(C)Cc2cc(F)cc(COc3c(F)cc(CC4CC4C(=O)O)cc3F)c2O1 (racemic) [Example 184]	%	97.04
Cc1cc2cccc(COc3c(F)cc(CC(C)C(=O)O)cc3F)c2s1 (stereo not shown)	%	117.38
CC1(C)Cc2cc(F)cc(COc3cc(Cl)c(CCC(=O)O)c(Cl)c3)c2O1	%	151.44

Give % Activity (GW9508 Reference Compound) for all compounds that follow.
1. CC1(C)Cc2c(COc3c(F)cc(C4CC4C(=O)O)cc3F)cccc2O1 (stereo not shown)
2. CC1(C)Cc2cc(F)cc(COc3c(F)cc(CC4CC4C(=O)O)cc3F)c2O1 (single isomer, unassigned) [Example 184B]
3. CC(Cc1ccc(OCc2cc(Cl)cc3c2OC(C)(C)C3=O)c(F)c1)C(=O)O (stereo not shown)

Resp:
1. 126
2. 130.66
3. 109.62

###

# systemTested: human GPR120 (Homo sapiens)
# Construct: host or cells: HEK293 cells co-expressing Gqi5
# protocolNotes: Intracellular Ca2+ assay in human GPR120 stable cell line (HEK293 co-expressing Gqi5), Flexstation
# Type: cell-based
# measurementSetup: % activity at 5 μM compared to the maximal activity of GW9508 at 6.7 μM (=100%); human GPR120 cells, Ca2+ fluorescence
resultType: % Activity (GW9508 Reference Compound) (%)
One number for each entry, in %.

Example entries and their recorded answers appear below.
molecule	% Activity (GW9508 Reference Compound) (%)
Cc1cc(COc2c(F)cc(CC(C)C(=O)O)cc2F)c2c(c1)CC(C)(C)O2 (stereo not drawn)	149.2
CC(Cc1cc(F)c(OCc2cc(Cl)cc3c2OC(C)C3(C)C)c(F)c1)C(=O)O (stereo not drawn)	72.36
CC1(C)Cc2cc(F)cc(COc3ccc(CC(=O)O)cc3)c2O1	103.4
COc1cc(CCC(=O)O)c(Br)cc1OCc1cc(F)cc2c1OC(C)(C)C2	108.51
CC(Cc1ccc(OCc2cc(OC(F)(F)F)cc3c2OC(C)(C)C3)cc1)C(=O)O (stereo not drawn)	131.64

Looking up CC(Cc1ccc(OCc2cc(-c3ccc(Cl)cc3)cc3c2OC(C)(C)C3)cc1)C(=O)O (stereo not drawn) , I see its % Activity (GW9508 Reference Compound) listed as 24
